- measuredTarget: Receptor tyrosine-protein kinase erbB-2 (Homo sapiens)
- experimentalDetails: reducers of endogenous Her2 protein level, primary screen, SKBR3 breast tumor cells, AlphaScreen, ATP viability (AID 461);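 also: lower value means less Her2 protein in the cells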
- cond: 18-24 h, at 10 µM, active compounds read low
outcomeMeasure: Her2 level (%)
Report as a plain number; the unit % is understood.

Worked set:
INSERT INTO results (molecule, measuredtarget, result) VALUES
  ('COc1ccc2nc(NC(=O)CSc3nnc(-c4ccoc4C)n3C)sc2c1', 'Receptor tyrosine-protein kinase erbB-2 (Homo sapiens)', 106),
  ('CCC(=O)N1CCc2cc(S(=O)(=O)CCC(=O)Nc3c(C)n(C)n(-c4ccccc4)c3=O)ccc21', 'Receptor tyrosine-protein kinase erbB-2 (Homo sapiens)', 104),
  ('CCOc1ccc(S(=O)(=O)Nc2cccc(Cl)c2)cc1', 'Receptor tyrosine-protein kinase erbB-2 (Homo sapiens)', 74.5),
  ('O=C(Nc1cc(Cl)ccc1Cl)c1noc2c1CCCC2', 'Receptor tyrosine-protein kinase erbB-2 (Homo sapiens)', 90.5),
  ('CCC(=O)Nc1cc2nn(-c3ccccc3)nc2cc1Cl', 'Receptor tyrosine-protein kinase erbB-2 (Homo sapiens)', 90.5);

Short answer for O=C(Nc1cccnc1)c1ccc2c(c1)C(=O)N(Cc1cccnc1)C2=O : Her2 level was 99.5

What the record says about CC1CCCCC1NC(=O)CCCc1nc2ccccc2c(=O)[nH]1 (stereo unspecified) : Her2 level is 93.5

The measured Her2 level associated with COc1ccccc1-c1cc(C(=O)NCCCn2ccnc2)no1 reads 80
